Cited source for all entries: patent US20240425571A1

Molecular target: T1, human GARP (glycoprotein A repetitions predominant, LRRC32) on the cell surface (human, UniProt Q14392 20-662)
T1 construct: whole, on cells; also called hGARP; free GARP
T1 sequence (looked up): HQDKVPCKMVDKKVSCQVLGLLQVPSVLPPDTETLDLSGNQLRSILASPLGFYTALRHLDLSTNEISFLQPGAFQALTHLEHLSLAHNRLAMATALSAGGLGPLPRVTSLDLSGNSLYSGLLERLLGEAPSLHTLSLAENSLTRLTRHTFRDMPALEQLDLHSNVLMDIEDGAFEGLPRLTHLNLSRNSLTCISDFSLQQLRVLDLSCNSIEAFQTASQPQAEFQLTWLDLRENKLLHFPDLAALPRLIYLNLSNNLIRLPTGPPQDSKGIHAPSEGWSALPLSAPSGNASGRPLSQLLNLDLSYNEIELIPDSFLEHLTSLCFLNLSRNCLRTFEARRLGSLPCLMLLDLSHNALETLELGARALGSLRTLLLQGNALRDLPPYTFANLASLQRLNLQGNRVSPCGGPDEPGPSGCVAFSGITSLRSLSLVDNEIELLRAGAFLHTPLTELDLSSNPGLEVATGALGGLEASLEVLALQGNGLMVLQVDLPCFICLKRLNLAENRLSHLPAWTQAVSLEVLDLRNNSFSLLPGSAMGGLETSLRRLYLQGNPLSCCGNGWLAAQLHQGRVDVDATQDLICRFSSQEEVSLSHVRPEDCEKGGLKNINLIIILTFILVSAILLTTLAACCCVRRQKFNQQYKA
Test: FACS, Ag(+) cells, supernatant heated 70 C 5 min, 5 ug/ml
propertyName: MFI (MFI)
Respond with the bare value in MFI.

Exercise: Give the reported value of MFI for this record: huPIIO-1VH2VL2 (antibody, V domains shown, Humanized IgG from Expi293, tested as culture supernatant; also called H2L2; HuPIIO-1VH2/L2) VH: QVQLQESGPGLVKPSQTLSLTCTVSGYSITSDYAWNWIRQFPGNKLEWMGYISYSGSTSYTPSLKSRITISRDTSKNHFFLKLSSVTAADTAVYYCAKSGGDYYGSSSYWYFDVWGQGTMVTVSS VL: DIVLTQSPSSLAVSLGERVTMNCKSSQSLLNSRSQKNYLAWYQQKPGQPPKLLIYGASTRGSGVPDRFSGSGSGTDFTLTISSVQAEDVAVYYCQNDHSYPFTFGQGTKLEIKR
Solution: 26.1

Exercise: Give the reported value of MFI for this record: huPIIO-1VH1VL1 (antibody, V domains shown, Humanized 4D3/PIIO-1 IgG made in Expi293 cells; also called H1L1; HuPIIO-1VH1/L1) VH: QVQLQESGPGLVKPSQTLSLTCTVSGYSITSDYAWNWIRQFPGNKLEWMGYISYSGSTSYTPSLKSRVTISRDTSKNHFSLKLSSVTAADTAVYYCAKSGGDYYGSSSYWYFDVWGQGTMVTVSS VL: DIVLTQSPSSLAVSLGERATMNCKSSQSLLNSRSQKNYLAWYQQKPGQPPKLLIYGASTRGSGVPDRFSGSGSGTDFTLTISSLQAEDVAVYYCQNDHSYPFTFGQGTKLEIKR
Solution: 26.2

Exercise: Give the reported value of MFI for this record: huPIIO-1VH1VL2 (antibody, V domains shown, Humanized IgG from Expi293; also called H1L2; HuPIIO-1VH1/L2) VH: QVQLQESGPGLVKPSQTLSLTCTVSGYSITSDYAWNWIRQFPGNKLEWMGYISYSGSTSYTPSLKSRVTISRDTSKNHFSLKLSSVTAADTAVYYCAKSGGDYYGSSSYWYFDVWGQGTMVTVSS VL: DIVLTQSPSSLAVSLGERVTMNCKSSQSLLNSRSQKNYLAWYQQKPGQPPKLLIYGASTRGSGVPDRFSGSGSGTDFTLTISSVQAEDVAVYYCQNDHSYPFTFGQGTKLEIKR
Solution: 25.7

Exercise: Give the reported value of MFI for this record: huPIIO-1VH2VL3 (antibody, V domains shown, Humanized IgG from Expi293, tested as culture supernatant; also called H2L3; HuPIIO-1VH2/L3) VH: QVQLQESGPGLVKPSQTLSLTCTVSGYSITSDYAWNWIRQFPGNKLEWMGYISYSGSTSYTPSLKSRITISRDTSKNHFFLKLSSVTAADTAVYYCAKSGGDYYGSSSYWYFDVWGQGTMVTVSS VL: DIVLTQSPSSLAVSAGERVTMSCKSSQSLLNSRSQKNYLAWYQQKPGQPPKLLIYGASTRGSGVPDRFSGSGSGTDFTLTISSVQAEDVAVYYCQNDHSYPFTFGSGTKLEIKR
Solution: 26.4

Exercise: Give the reported value of MFI for this record: huPIIO-1VH3VL1 (antibody, V domains shown, Humanized IgG from Expi293, tested as culture supernatant; also called H3L1; HuPIIO-1VH3/L1) VH: DVQLQESGPGLVKPSQTLSLTCTVSGYSITSDYAWNWIRQFPGNKLEWMGYISYSGSTSYTPSLKSRITISRDTSKNHFFLKLSSVTAADTATYYCAKSGGDYYGSSSYWYFDVWGQGTTVTVSS VL: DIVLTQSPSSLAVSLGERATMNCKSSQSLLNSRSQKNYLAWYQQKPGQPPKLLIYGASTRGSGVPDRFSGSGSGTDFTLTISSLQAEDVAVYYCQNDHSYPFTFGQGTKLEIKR
Solution: 25.7
